ASSAY SUMMARY: compound fluorescence in toxin protease inhibitor counterscreen, primary screen, artefact control for toxin protease inhibitor project, biochemical, multiplex microsphere, HTS (AID 624483)
CONDITION: compound autofluorescence counterscreen, microsphere flow cytometry; hits give high values
Out of some 360,000 compounds screened, about 11,000 (3.1%) were called active. Not shown: some 2% with an inconclusive outcome. What follows is part of a selection rich in actives, with near analogues and random picks from the rest.
Recorded fluorescence intensity determines the label; the label ranges are bin 1: < 6000; bin 2: ≥ 6000 and < 20000; bin 3: ≥ 20000

>>> print(df.to_string())
                                   compound  discrete_label
0  COc1ccc(Cl)cc1S(=O)(=O)Nc1cccc(C(=O)O)c1           bin 3
1  CCN(CC)C(=O)C1CCCN(Cc2cccc(Cl)c2)C1 (centres undefined)           bin 1
2  CC(C)C(OC(=O)c1cccs1)C(=O)NC1CCCCC1 (centres undefined)           bin 2
3  Cc1cccc(-c2cnc(C(O)c3cc(C)cc(C)c3)[nH]2)c1 (centres undefined)           bin 1
4  CC1(C(=O)NCc2ccc3c(c2)OCO3)CCN1C(=O)Cc1cccs1 (centres undefined)           bin 1
5         Cc1ccc(N2CCN(/N=C/c3cccs3)CC2)cc1           bin 2

Class (by measured fluorescence intensity) for "O=C(COC(=O)c1ccc[nH]c1=O)Nc1ccc2c(c1)OC(F)(F)O2"
bin 1

For "COc1ccc2c(c1)CCc1c(C(=O)Nc3c(C)n(C)n(-c4ccccc4)c3=O)noc1-2" , which fluorescence intensity bin applies?
bin 3

Form field 'band' for CSc1ccc(CNC(=O)C2(C)CCCN2C)cc1 (centres undefined)
bin 1

* * *

ASSAY SUMMARY: compound fluorescence in toxin protease inhibitor counterscreen, primary screen, artefact control for toxin protease inhibitor project, biochemical, multiplex microsphere, HTS (AID 624483)
CONDITION: compound autofluorescence counterscreen, microsphere flow cytometry; hits give high values
The campaign covered roughly 360,000 compounds. About 11,000 (3.1%) were called active. Not shown: some 2% with an inconclusive outcome. The full list was thinned out, with actives kept by preference.
Please use met whenever fluorescence intensity is not below 4000, and not met whenever it is.

// known answers, use as guide
In [3]: df
Out[3]:
                                   compound  discrete_label
0  COc1cccc(NC(=O)N2CCCC2C(=O)NC2CCCCC2)c1 (centres undefined)             met
1  COc1ccc(OC)c(NC(=O)C2(C)CCN2C(=O)Cc2ccccc2)c1 (centres undefined)         not met
2             Fc1cnc(N2CCOCC2)nc1NCc1ccccc1             met
3        Cc1cc(Cl)nc(NC(=O)Nc2cccc(Cl)c2)n1         not met

Test whether the compound "CC(=O)Oc1ccc(Cn2c(C)c(C(=O)NCc3ccc(C#N)cc3)sc2=O)cc1" records fluorescence intensity of 4000 or higher.
met

* * *

ASSAY SUMMARY: compound fluorescence in toxin protease inhibitor counterscreen, primary screen, artefact control for toxin protease inhibitor project, biochemical, multiplex microsphere, HTS (AID 624483)
CONDITION: compound autofluorescence counterscreen, microsphere flow cytometry; hits give high values
The campaign covered roughly 360,000 compounds. About 11,000 (3.1%) were called active. Roughly 2% stayed inconclusive and do not appear here. For the sample, actives were picked, then their nearest neighbours and some compounds at random.
Reported fluorescence intensity values for a set of compounds
Just the number, please, no unit attached.

// worked examples, fluorescence intensity included
>>> print(df.to_string())
                                   compound  quantitative_result
0   COc1ccc(S(=O)(=O)Nc2cc(C)on2)cc1NC(C)=O                 4100
1  Cc1ccc(C)c(N2C(=O)CS/C2=N\NC(=O)c2ccccc2Cl)c1                 9520
2  Cc1cc(C)cc(Oc2nc3c(C)cccn3c(=O)c2/C=C(\C#N)C(=O)NC2CCS(=O)(=O)C2)c1 (stereo not drawn)                 2120
3  C[C@@H]1CC2=C(C(=O)OC(C)(C)O2)[C@@H](C2CC2)O1                 5730
4  Cn1c(=O)oc2cc(S(=O)(=O)NCCC(=O)NCc3ccccc3Cl)ccc21                 4110

Please look up its fluorescence intensity: COc1ccc(C=C2CCC3C(CCCC34OCCO4)C2=O)cc1 (stereo not drawn)
2890

Can you share its fluorescence intensity? I mean this compound: "Cc1sc2ccccc2c1CNC[C@H]1O[C@@H](n2ccc(=O)[nH]c2=O)[C@H](O)[C@@H]1O"
6010

What value of fluorescence intensity has been recorded for this entry: "CCCCCc1c(Cc2ccccc2)ncn1CCc1ccccc1OC"
4640

* * *

ASSAY SUMMARY: compound fluorescence in toxin protease inhibitor counterscreen, primary screen, artefact control for toxin protease inhibitor project, biochemical, multiplex microsphere, HTS (AID 624483)
CONDITION: compound autofluorescence counterscreen, microsphere flow cytometry; hits give high values
The whole screen tested about 360,000 compounds, of which about 11,000 (3.1%) were called active. Not shown: some 2% with an inconclusive outcome. Shown is part of a subset that was picked to be rich in actives.
PROPERTY: fluorescence intensity
Number only, no unit.

Use the examples below as a reference point.
>>> df
                                   compound  quantitative_result
0  O=C(Nc1nnc([C@H]2C[C@H](O)[C@@H](CO)O2)s1)c1cccc(Cl)c1                 3090
1                       CNc1nnc(-c2ccco2)s1                 4180
2         O=C(NCc1ccc2c(c1)OCO2)c1ccc(Cl)s1                 3620

Entry "CCOC(=O)c1ccn(S(=O)(=O)c2ccc(C)cc2)c1-c1ccccc1" : reported fluorescence intensity = ?
5920

Entry "C=C(C)CSc1nnc(-c2ccc(C)cc2)n1N" has what fluorescence intensity?
9220

Consider the compound shown here: "O=C(CSc1nc2cccc(F)c2c(=O)n1-c1ccccc1)Nc1ccc2c(c1)CCC2" What is its recorded fluorescence intensity?
4620

Which fluorescence intensity reading was recorded for the compound CCN1CCN(C2CCCCC2NS(=O)(=O)c2ccc(Cl)cc2)CC1 (configuration not stated) ?
5580

Value lookup for fluorescence intensity; key = "CCc1cccc2c(=O)c(C(=O)NCCCOC)c[nH]c12"
4150

Find the recorded fluorescence intensity belonging to Cc1nc(C(F)(F)F)ccc1C(=O)N1CCC1(C)C(=O)NS(=O)(=O)c1ccc(F)cc1F (configuration not stated) and report it.
3750

Which fluorescence intensity is listed for NC(Cc1ccc(F)cc1)c1csc(Nc2nncc3ccccc23)n1 (configuration not stated) ?
3900

# input compound: "Clc1ncn(CCOc2ccccc2)c1Cl" ; wanted: its fluorescence intensity
3990

Name the recorded fluorescence intensity for "CCOC(=O)N1CCC(O)(c2cc(C)c(C)cc2C)CC1" .
23000

* * *

Measured fluorescence intensity of individual entries
ASSAY SUMMARY: compound fluorescence in toxin protease inhibitor counterscreen, primary screen, artefact control for toxin protease inhibitor project, biochemical, multiplex microsphere, HTS (AID 624483)
CONDITION: compound autofluorescence counterscreen, microsphere flow cytometry; hits give high values
Screen size: about 360,000 compounds; about 11,000 (3.1%) were called active. About 2% were inconclusive and are not listed. The sample as a whole holds a higher share of actives than the screen did.
Lab note: record just the number, no unit beside it.

In the examples that follow, each entry is paired with its recorded fluorescence intensity.
>>> print(df.to_string())
                                   compound  quantitative_result
0  COc1ccc(CC(N)c2csc(NC(=O)NC(c3ccccc3)c3ccccc3)n2)cc1 (stereo not given)                 3610
1  COc1ccc(CC(=O)NCc2nnc(SCC(=O)Nc3nccs3)n2C)cc1                 4710
2  C[C@H](NC(=O)[C@@H]1CCCN1C(=O)[C@@H]1CCCN1C(=O)c1ccccc1)c1ccccc1                 6120
3  COc1ccc(OCCCC(=O)OC(C)C(=O)Nc2ccccc2[N+](=O)[O-])cc1 (stereo not given)                 3940
4     CCc1ccc(NC(=O)C(=O)NNC(=O)c2cccs2)cc1                 5780

What fluorescence intensity value was documented for this compound, "Cc1ccc(C(=O)c2c(NC(=O)c3ccccc3)sc(C)c2C)cc1" ?
24600

If you can, please state the reported fluorescence intensity value of "O=C(O)Cc1ccc(NC(=O)c2cccs2)cc1" .
19700

Return reported fluorescence intensity; argument: "Cc1sc(NC(=O)c2ccc3ncsc3c2)c(C(N)=O)c1C"
5240

# fluorescence intensity lookup, item "COc1ccccc1CNC(=O)C1CCN(S(C)(=O)=O)CC1"
8350

For the compound CC1(C)CC(CC(=O)O)C(=O)O1 (stereo not given) , what fluorescence intensity is on record?
4100

Provenance of the data: PubChem BioAssay AID624483
